System: Shionogi mouse mammary carcinoma cells
Experiment: Androgenic/antiandrogenic activity on DHT-stimulated Shionogi cell growth
Format: cell-based
Conditions: Mus musculus, read-out: Shionogi Antiandrogenic activity IC50 (nM), inhibition of DHT-stimulated Shionogi cell number
Classify: y when IC50 is strictly less than 2 nM; n when IC50 is not.

Solved entries (count: 5):
compound="CCCCC(NC(CC)CC)c1cccc(OCC[C@]23CCC4C(CCC5CC(=O)CC[C@@]54C)C2CCC3=O)c1 (stereo partly drawn) [EM-6896]" system_tested="Shionogi mouse mammary carcinoma cells" label_class=n
compound="CCC(Nc1ccncc1)c1cccc(OCC[C@]23CCC4C(CCC5CC(=O)CC[C@@]54C)C2CCC3O)c1 (stereo partly drawn) [EM-6857]" system_tested="Shionogi mouse mammary carcinoma cells" label_class=n
compound="CN(C)CC(NC1CCCCC1)c1cccc(OCC[C@]23CCC4C(CCC5CC(=O)CC[C@@]54C)C2CCC3O)c1 (stereo partly drawn) [EM-7131]" system_tested="Shionogi mouse mammary carcinoma cells" label_class=n
compound="O=C1C=C2CCC3C(CC[C@@]4(CCOc5cccc(CNC6CCCCC6)c5)C3CC[C@@H]4O)C2CC1 (stereo partly drawn) [EM-6577]" system_tested="Shionogi mouse mammary carcinoma cells" label_class=n
compound="CCC(CC)NCc1cc(CNC(CC)CC)cc(OCC[C@]23CCC4C(CCC5CC(=O)CC[C@@]54C)C2CC[C@@H]3O)c1 (stereo partly drawn) [EM-6452]" system_tested="Shionogi mouse mammary carcinoma cells" label_class=y

Report whether reported IC50 is lower than 2 nM (strictly) for CCC(NCC1CCCO1)c1ccnc(OCC[C@]23CCC4C(CCC5CC(=O)CC[C@@]54C)C2CC[C@@H]3O)c1 (stereo partly drawn) [EM-7104] n

is_below(IC50, 2 nM) for CCC(CC)NC(CC)c1cccc(OCC[C@]23CCC4C(CCC5C/C(=N/O)CC[C@@]54C)C2CC[C@@H]3OC)c1 (stereo partly drawn) [EM-6544] ? y

Would you kindly verify if IC50 of CCCC(NC(C)C)c1cccc(OCC[C@]23CCC4C(CCC5=CC(=O)CC[C@@]54C)C2CC[C@]3(C)O)c1 (mixture of isomers) [EM-7133] is strictly less than 2 nM? y

In the record for C[C@]12CCC(=O)CC1CCC1C2CC[C@]2(CCOc3cccc(CNc4ccncc4)c3)C(O)CCC12 (stereo partly drawn) [EM-6856] , is IC50 less than 2 nM? n

###

Provide the recorded Androgen Receptor Binding (%) Human RBA R1881 = 100 for the entries that follow.
Biological target: Human Androgen Receptor (Homo sapiens, UniProt P10275)
Sequence (P10275 1-920): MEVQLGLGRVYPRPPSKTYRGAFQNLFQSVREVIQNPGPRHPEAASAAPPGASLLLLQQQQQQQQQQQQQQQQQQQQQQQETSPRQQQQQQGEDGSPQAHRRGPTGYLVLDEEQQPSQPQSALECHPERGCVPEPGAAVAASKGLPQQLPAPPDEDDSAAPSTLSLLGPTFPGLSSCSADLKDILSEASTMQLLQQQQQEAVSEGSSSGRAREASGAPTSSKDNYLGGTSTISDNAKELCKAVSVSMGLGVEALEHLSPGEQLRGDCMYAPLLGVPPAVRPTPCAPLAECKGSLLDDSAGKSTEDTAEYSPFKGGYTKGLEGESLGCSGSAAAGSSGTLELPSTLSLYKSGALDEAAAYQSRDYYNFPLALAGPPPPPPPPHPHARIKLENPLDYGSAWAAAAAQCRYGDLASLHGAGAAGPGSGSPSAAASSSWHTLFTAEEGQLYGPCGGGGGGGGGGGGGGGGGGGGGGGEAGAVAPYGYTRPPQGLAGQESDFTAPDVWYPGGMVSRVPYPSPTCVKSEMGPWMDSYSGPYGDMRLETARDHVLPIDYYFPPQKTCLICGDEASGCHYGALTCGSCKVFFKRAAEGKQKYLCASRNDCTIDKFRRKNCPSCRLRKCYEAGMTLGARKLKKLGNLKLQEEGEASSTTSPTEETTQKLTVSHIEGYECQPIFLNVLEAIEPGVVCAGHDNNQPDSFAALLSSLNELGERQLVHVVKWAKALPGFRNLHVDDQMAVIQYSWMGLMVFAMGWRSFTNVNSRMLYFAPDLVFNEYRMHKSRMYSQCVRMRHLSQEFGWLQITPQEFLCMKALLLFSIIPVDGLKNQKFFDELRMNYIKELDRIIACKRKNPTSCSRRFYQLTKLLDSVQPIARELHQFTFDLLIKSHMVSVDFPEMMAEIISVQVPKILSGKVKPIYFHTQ
Assay: Androgen receptor binding assay (hydroxylapatite, [3H]R1881, cytosol of transfected HEK-293 cells)
Details: % RBA=100×IC50 R1881/IC50 compound, transfected cells

molecule="C[C@@H]1CC2=CC(=O)CCC2C2CC[C@@]3(CCOc4cccc(C[S+]([O-])c5ccccc5)c4)C(CC[C@]3(C)O)C21 (mixture of isomers)" system_tested="Human Androgen Receptor (Homo sapiens, UniProt P10275)" result=39%

Please look at the items below and tell me Androgen Receptor Binding (%) Human RBA R1881 = 100 for each one, in order.
1. CCC(NC1CCCC1)c1cc(OCC[C@]23CCC4C(CCC5=CC(=O)CC[C@@]54C)C2CCC3O)ccn1 (some centres unmarked)
2. C[C@H]1CCCCC1NCc1cccc(OCC[C@]23CCC4C(CCC5CC(=O)CC[C@@]54C)C2CC[C@@H]3O)c1 (some centres unmarked)
3. CCCC(NC(C)C)c1cccc(OCC[C@]23CCC4C(CCC5=CC(=O)CC[C@@]54C)C2CC[C@]3(C)O)c1 (mixture of isomers)
4. CCC(NC1CCSCC1)c1cccc(OCC[C@]23CCC4C(CCC5CC(=O)CC[C@@]54C)C2CCC3O)c1 (some centres unmarked)

["26.6%", "119%", "55%", "506%"]

Give measured Androgen Receptor Binding (%) Human RBA R1881 = 100 for every item shown.
1. CCC(CC)NC(CC)c1ccc(F)c(OCC[C@]23CCC4C(CCC5CC(=O)CC[C@@]54C)C2CC[C@@H]3O)c1 (some centres unmarked)
2. CCC(CC)CNC(CC)(CC)c1cccc(OCC[C@]23CCC4C(CCC5CC(=O)CC[C@@]54C)C2CCC3O)c1 (some centres unmarked)
3. CCCC(NC1CCCCC1)c1cccc(OCC[C@]23CCC4C(CCC5CC(=O)CC[C@@]54C)C2CC[C@@H]3O)c1 (some centres unmarked)
4. CCCC(NC(CC)CC)c1cccc(OCC[C@]23CCC4C5CCC(=O)C=C5C[C@@H](C)C4C2CC[C@@H]3O)c1 (mixture of isomers)
5. CCC(NC1CCOCC1)c1cncc(OCC[C@]23CCC4C(CCC5=CC(=O)CC[C@@]54C)C2CCC3O)c1 (some centres unmarked)
6. CCC(NC1CCCCC1)c1cccc(OCC[C@]23CCC4C(CCC5=CC(=O)CC[C@@]54C)C2CC[C@@H]3O)c1 (some centres unmarked)
7. CC(NC1CCCC1)c1cccc(OCC[C@]23CCC4C5CCC(=O)C=C5C[C@H](C)C4C2CC[C@@]3(C)O)c1 (stereo in doubt)
8. CC(C)(NCc1ccccc1)c1cccc(OCC[C@]23CCC4C(CCC5CC(=O)CC[C@@]54C)C2CC[C@@H]3O)c1 (some centres unmarked)

103%
1981%
292.5%
120%
16%
118%
77%
62%

Androgen Receptor Binding (%) Human RBA R1881 = 100 recorded for this molecule, CCC(CC)NCc1cc(CNC(CC)CC)cc(OCC[C@]23CCC4C(CCC5CC(=O)CC[C@@]54C)C2CC[C@@H]3O)c1 (some centres unmarked) , is 104%

###

Molecular target: Human Androgen Receptor (Homo sapiens, UniProt P10275)
Test: Androgen receptor binding assay (hydroxylapatite, [3H]R1881, cytosol of transfected HEK-293 cells)
Details: % RBA=100×IC50 R1881/IC50 compound, transfected cells
reported_endpoint: Androgen Receptor Binding (%) Human RBA R1881 = 100
Numbers only, in %.

Below are worked cases with known answers.
compound="CCCCC(NC(CC)CC)c1cccc(OCC[C@]23CCC4C(CCC5CC(=O)CC[C@@]54C)C2CCC3=O)c1 (some centres unmarked) [EM-6896]" endpoint_unit=% result_number=314.6
compound="CCC(c1cncc(OCC[C@]23CCC4C(CCC5CC(=O)CC[C@@]54C)C2CCC3O)c1)N1CCOCC1 (some centres unmarked) [EM-7106]" endpoint_unit=% result_number=2.5
compound="CCC[C@H](NC(CC)CC)c1cccc(OCC[C@]23CCC4C(CCC5CC(=O)CC[C@@]54C)C2CC[C@@H]3O)c1.Cl (some centres unmarked) [EM-6557]" endpoint_unit=% result_number=31

Provide each entry's Androgen Receptor Binding (%) Human RBA R1881 = 100 from the list below.
1. CCCC(NC(CC)CC)c1cccc(OCC[C@]23CCC4C5CCC(=O)C=C5C[C@@H](C)C4C2CC[C@]3(C)O)c1 (mixture of isomers) [EM-7129]
2. CC(C)CNC1(c2cccc(OCC[C@]34CCC5C(CCC6CC(=O)CC[C@@]65C)C3CCC4O)c2)CC1 (some centres unmarked) [EM-6905]
3. CCC(CC)NCc1ccc(F)c(OCC[C@]23CCC4C(CCC5CC(=NO)CC[C@@]54C)C2CC[C@@H]3O)c1 (some centres unmarked) [EM-6409]

[197, 274.8, 16]
